experiment: in vitro; conditions: human, Biliary excretion clearance, observed, CLbile, int
observable: hepatocyte CLint at 1 μM (µL/min/1e6 cells)
Give bare numbers, in µL/min/1e6 cells.

hepatocyte CLint at 1 μM for "CCOc1ccc2ccccc2c1C(=O)N[C@@H]1C(=O)N2[C@@H]1SC(C)(C)[C@@H]2C(=O)O" is 2.22

###

test: icHep permeation assay (sinusoidal to bile side) to estimate drug biliary excretion clearance; conditions: human, Biliary excretion clearance, in vitro, observed, CLbile, int, icHep (HUM181001B); CLbile,app of icHep minus control cells
// -1 strictly below 0.7 µL/min/1e6 cells in hepatocyte CLint at 1 μM; 1 otherwise

compound: CN/C(=N/CCSCc1nc[nH]c1C)NC#N [Cimetidine, cimetidine]
category-label: -1
--
compound: CCOc1ccc2ccccc2c1C(=O)N[C@@H]1C(=O)N2[C@@H]1SC(C)(C)[C@@H]2C(=O)O [Nafcillin, nafcillin]
category-label: 1
--
compound: CN(Cc1cnc2nc(N)nc(N)c2n1)c1ccc(C(=O)N[C@@H](CCC(=O)O)C(=O)O)cc1 [Methotrexate, methotrexate]
category-label: 1
--
compound: CC[C@H]1OC(=O)[C@H](C)[C@@H](O[C@H]2C[C@@](C)(OC)[C@@H](O)[C@H](C)O2)[C@H](C)[C@@H](O[C@@H]2O[C@H](C)C[C@H](N(C)C)[C@H]2O)[C@](C)(O)C[C@@H](C)C(=O)[C@H](C)[C@@H](O)[C@]1(C)O [Erythromycin, erythromycin]
category-label: 1

IN: Answer whether hepatocyte CLint at 1 μM of CC[C@]1(O)C[C@H]2CN(CCc3c([nH]c4ccccc34)[C@@](C(=O)OC)(c3cc4c(cc3OC)N(C=O)[C@H]3[C@@](O)(C(=O)OC)[C@H](OC(C)=O)[C@]5(CC)C=CCN6CC[C@]43[C@@H]65)C2)C1 [Vincristine, vincristine] is greater than or equal to 0.7 µL/min/1e6 cells.
OUT: -1

###

tested on: sandwich-cultured PXB-cells; settings: human, 2 min, 1 μM
fulfilled if Predicted in vivo CLbile, int, Mean is below 700 mL/min. not fulfilled if not; exact matches included in not fulfilled.

Worked examples follow.
line-notation: CN/C(=N/CCSCc1nc[nH]c1C)NC#N
experimental-system: sandwich-cultured PXB-cells
category-label: not fulfilled
--
line-notation: CC[C@]1(O)C[C@H]2CN(CCc3c([nH]c4ccccc34)[C@@](C(=O)OC)(c3cc4c(cc3OC)N(C=O)[C@H]3[C@@](O)(C(=O)OC)[C@H](OC(C)=O)[C@]5(CC)C=CCN6CC[C@]43[C@@H]65)C2)C1
experimental-system: sandwich-cultured PXB-cells
category-label: fulfilled
--
line-notation: CC[C@H]1OC(=O)[C@H](C)[C@@H](O[C@H]2C[C@@](C)(OC)[C@@H](O)[C@H](C)O2)[C@H](C)[C@@H](O[C@@H]2O[C@H](C)C[C@H](N(C)C)[C@H]2O)[C@](C)(O)C[C@@H](C)C(=O)[C@H](C)[C@@H](O)[C@]1(C)O
experimental-system: sandwich-cultured PXB-cells
category-label: not fulfilled

Kindly consider the entry below.
IN: Quick check: does "CCOc1ccc2ccccc2c1C(=O)N[C@@H]1C(=O)N2[C@@H]1SC(C)(C)[C@@H]2C(=O)O" have Predicted in vivo CLbile, int, Mean under 700 mL/min?
OUT: not fulfilled
